Listing: Octet binding assay response, pTA of selected molecules
System: p[…]-Biotin
assay.overview: Octet binding assay of PTM-specific affinity reagent candidates, pTA peptide
test.settings: fixed concentration of reagent
Primed or numbered codes have the meaning given here. Where no end group is shown, it is not given here. [ ]: non-standard residue; d: D form. pS = N[C@@H](COP(=O)(O)O)C(=O)O; Biotin′ = not defined here
observation.type: Octet binding assay response, pTA

molecule="PM13 (Saccharomyces cerevisiae/FHA1) (other) MENITQPTQQSTQATQRFLIEKFSQEQIGENIVCRVICTTGQIPIRDLSADISQVLKEKRSIKKVWTFGRNPACDYHLGNISRLSNKHFQILLGEDGNLLLNDISTNGTWLNGQKVEKNSNQLLSQGDEITVGVGVESDILSLVIFINDKFKQCLEQNKVDRIRSNLKNTSKIASPGLTSSTASSMVANKTGIFKDFSIIDEVVGQGAFATVKKAIERTTGKTFAVKIISKRKVIGNMDGVTRELEVLQKLNHPRIVRLKGFYEDTESYYMVMEFVSGG" observation_type="Octet binding assay response, pTA" recorded_measurement=1.8
molecule="PM12 (Mycobacterium tuberculosis/FhaA) (other) MGSAGTSVTLQLDDGSGRTYQLREGSNIIGRGQDAQFRLPDTGVSRRHLEIRWDGQVALLADLNSTNGTTVNNAPVQEWQLADGDVIRLGHSEIIVRMH" observation_type="Octet binding assay response, pTA" recorded_measurement=6.9
molecule="PM14 (Saccharomyces cerevisiae/RAD53) (other) MEDQDGKIQGFKIPAHAPIRYTQPKSIEAETREQKLLHSNNTENVKSSKKKGNGRFLTLKPLPDSIIQESLEIQQGVNPFFIGRSEDCNCKIEDNRLSRVHCFIFKKRHAVGKSMYESPAQGLDDIWYCHTGTNVSYLNNNRMIQGTKFLLQDGDEIKIIWDKNNKFVIGFKVEINDTTGLFNEGLGMLQEQRVVLKQTAEEKDLVKKLTQMMAAQRANQPSASSSSMSAKKPPVSDTNNNGNNSVLNDLVESPINANTGNILKRIHSVSLSQSQIDPSKKVKRAKLDQTSKGPENLQFS" observation_type="Octet binding assay response, pTA" recorded_measurement=1.1
molecule="PM18 (Human/MINT) (other) MVDMVQLLKKYPIVWQGLLALKNDTAAVQLHFVSGNNVLAHRSLPLSEGGPPLRIAQRMRLEATQLEGVARRMTVETDYCLLLALPCGRDQEDVVSQTESLKAAFITYLQAKQAAGIINVPNPGSNQPAYVLQIFPPCEFSESHLSRLAPDLLASISNISPHLMIVIASV" observation_type="Octet binding assay response, pTA" recorded_measurement=0.7
